Tested on: Mycobacterium tuberculosis
Assay: Cornell - Phenotypic assay to identify agents that inhibit growth of Mycobacterium tuberculosis
Assay type: functional
Design: scale not given: direction of the effect not stated beside the values
Details: 10 mM as filed; unlikely as a test dose
The campaign covered roughly 53,000 compounds. About 900 (1.7%) showed an effect of 50% or more. The full list was thinned out, with strong results kept by preference.
VALUE_KIND: Percent Effect (%)
Number in %, nothing else.

### Prompt Find the recorded Percent Effect belonging to NC(=O)c1ccc(NC(=O)N2CCN(c3cccs3)CC2)c(F)c1 and report it.
### Response 54.78

### Prompt Then O=C(Cc1cccs1)N1CC[C@H]2[C@@H]1CCC(=O)N2c1cccnc1.O=C(O)C(F)(F)F ?
### Response 4.016

### Prompt Then CC(=O)N1CCN(C(C)c2ccc(Br)cc2)CC1 (configuration not stated) ?
### Response 29.59

### Prompt Then O=C(NCCN1CCC(c2cccs2)CC1)Nc1cccs1 ?
### Response 107.5

### Prompt Then Cc1cc(C(N)=O)ccc1NC(=O)N1CCN(c2cccs2)CC1 ?
### Response 67.2

### Prompt Then COCCNC(=O)CN1CCCC1c1c(C)nn(C)c1Cl (configuration not stated) ?
### Response -22.86

### Prompt Then CCn1cnnc1CNC(=O)N1CCN(c2cccs2)CC1 ?
### Response -10.74

### Prompt Then O=C(Nc1ccccc1-c1cccs1)N1CCN(CC(F)F)CC1 ?
### Response -4.883

### Prompt Then Cc1cc(NC(=O)N2CCN(c3cccs3)CC2)ccc1C(N)=O ?
### Response 3.823

### Prompt Then O=C(NCCc1ccccc1)NCCN1CCC(c2cccs2)CC1 ?
### Response 45.08

### Prompt Then O=C(c1ccc(F)cc1F)N(CC(F)(F)F)C1CCOCC1 ?
### Response 37.88

### Prompt Then COCc1nc(CNc2cccc(-c3ncon3)c2)cs1 ?
### Response -0.7134

* * *

Tested on: Mycobacterium tuberculosis
Assay: Cornell - Phenotypic assay to identify agents that inhibit growth of Mycobacterium tuberculosis
Format: functional
Parameters: scale not given: direction of the effect not stated beside the values
Details: 10 mM as filed; unlikely as a test dose
About 900 (1.7%) of roughly 53,000 compounds showed an effect of 50% or more. Shown is part of a subset that was picked to be rich in strong results.
Give criterion met when the value for Percent Effect is at least 20%. Give criterion not met when it is less.

### Prompt hey, is Percent Effect for this one >= 20%? O=C(N1CCOCC1)n1cnc2ccccc21
### Response criterion not met

### Prompt Then O=S(=O)(Nc1cnc(N2CCOCC2)nc1)c1cccc(F)c1 ?
### Response criterion not met

### Prompt Then Cc1[nH]ncc1CCCNC(=O)Nc1ccccc1 ?
### Response criterion not met

### Prompt Then Cc1ccc(CN2C[C@H](OCCN(C)C)[C@H]3COC[C@H]32)o1.O=C(O)C(F)(F)F.O=C(O)C(F)(F)F ?
### Response criterion not met

### Prompt Then CSCC(CCO)Nc1nc(C(F)F)nc2ccccc12 (centres undefined) ?
### Response criterion met

### Prompt Then OCc1csc(N2C[C@@H](CN3CCCCCC3)[C@@H](CO)C2)n1 ?
### Response criterion not met

### Prompt Then CC(C)Cn1nc(-c2ccc(C(=O)O)cc2)cc1-c1ccc(F)cc1 ?
### Response criterion met

### Prompt Then CC(C)[C@H](N)C(=O)N1CCSc2ccccc2C1.Cl ?
### Response criterion not met

### Prompt Then N#CC1COCCN1C(=O)c1cccc2cc[nH]c12 (centres undefined) ?
### Response criterion not met

### Prompt Then CS(=O)(=O)N1CCOCC12CCN(Cc1ccc(F)cc1)CC2.O=C(O)C(F)(F)F ?
### Response criterion not met

### Prompt Then COCCN1C[C@H]2CCN(C(=O)c3cc(C)on3)CC[C@H]2S1(=O)=O ?
### Response criterion not met

### Prompt Then O=S(=O)(Nc1ccc(N2CCOCC2)cn1)c1cccc(F)c1 ?
### Response criterion met

### Prompt Then Cc1ccc(S(=O)(=O)NCCc2ccoc2)s1 ?
### Response criterion met

### Prompt Then CS(=O)(=O)N1CC(c2ccnc(Nc3ccccn3)n2)C1 ?
### Response criterion not met

### Prompt Then O=C(O)C(F)(F)F.O=C1CC2(CCN(Cc3ccccn3)C2)CN1c1cncnc1 (centres undefined) ?
### Response criterion not met

### Prompt Then CC(C)n1nccc1C(=O)N1CCC(c2nnsc2S(C)(=O)=O)CC1 ?
### Response criterion not met

### Prompt Then Cc1noc(C)c1-c1nc(N(C)C)ncc1-c1cnccn1 ?
### Response criterion not met

### Prompt Then Cc1[nH]ncc1CCCNC(=O)Nc1ccc2c(c1)OC1(CCCC1)O2 ?
### Response criterion met

### Prompt Then Cc1cc(N2CCC(O)(CN(C)C(=O)CCN)C2)c2cnccc2n1 (centres undefined) ?
### Response criterion met

### Prompt Then CC(C)Sc1ncccc1C(=O)NCc1ccc(O)cc1 ?
### Response criterion not met

### Prompt Then CNC(=O)c1cc2ccccc2n1C ?
### Response criterion not met

### Prompt Then Clc1ccccc1-c1nc(CNC2CCc3ncnn3C2)co1 (centres undefined) ?
### Response criterion not met

### Prompt Then COc1ccc(N(c2ccc(OC)cc2)c2ccc(C(=O)O)s2)cc1 ?
### Response criterion met

### Prompt Then Cc1[nH]ncc1CCCNC(=O)Nc1ccc(F)cc1 ?
### Response criterion not met

* * *

Test system: Mycobacterium tuberculosis
Test: Cornell - Phenotypic assay to identify agents that inhibit growth of Mycobacterium tuberculosis
Format: functional
Set-up: scale not given: direction of the effect not stated beside the values
Conditions: 10 mM as filed; unlikely as a test dose
Screen size: about 53,000 compounds; about 900 (1.7%) showed an effect of 50% or more. This is one part of a sample in which strong results are shown more often than they occur.
Give 1.0 when the value for Percent Effect is at least 30%. Give 0.0 when it is less.

### Prompt hey, is Percent Effect for this one >= 30%? CCc1nnc(CS(=O)(=O)c2ccc(C)c(C)c2)n1C
### Response 0.0

### Prompt Then Cc1cc(-c2cnc(NC3CC3)nc2-c2ccco2)on1 ?
### Response 1.0

### Prompt Then Cc1noc(-c2cnc(NC(C)C)nc2-c2ccco2)c1C ?
### Response 1.0

### Prompt Then Cc1cc(-c2cnc(NC3CCCCC3)nc2-c2ccco2)on1 ?
### Response 1.0

### Prompt Then CNc1ncc2c(n1)CN(CCc1ccc(C)cc1)C2=O ?
### Response 0.0

### Prompt Then O=C(NCc1ccccc1)N1CCC(Oc2ncccc2Br)CC1 ?
### Response 0.0

### Prompt Then Cc1cc(-c2cnc(NC3CC3)nc2-c2ccoc2)on1 ?
### Response 0.0

### Prompt Then Cc1cc(-c2cnc(NC3CCCC3)nc2-c2ccoc2)on1 ?
### Response 1.0

### Prompt Then Cc1cnc(-c2nc(NC3CC3)ncc2-c2cc(C)no2)cn1 ?
### Response 0.0

### Prompt Then CN1CCN(c2nc(-c3cnn(C)c3)cs2)CC1 ?
### Response 0.0

### Prompt Then Cn1cc(-c2csc(N3CCN(C(=O)OC(C)(C)C)CC3)n2)cn1 ?
### Response 1.0

### Prompt Then Cc1cc(-c2cnc(NC3CCCC3)nc2-c2ccc(C)o2)on1 ?
### Response 1.0

* * *

Tested on: Mycobacterium tuberculosis
Test: Cornell - Phenotypic assay to identify agents that inhibit growth of Mycobacterium tuberculosis
Type: functional
Parameters: scale not given: direction of the effect not stated beside the values
Details: 10 mM as filed; unlikely as a test dose
The whole screen tested about 53,000 compounds, of which about 900 (1.7%) showed an effect of 50% or more. The entries come from a sample that favours strong results as a whole.
Task for the reader: assign each of the following compounds its reported Percent Effect.
Number in %, nothing else.

### Prompt Find the recorded Percent Effect belonging to CN(C)Cc1cnn(-c2ccccc2C(=O)NCCC2CCCN2C)c1 (configuration not stated) and report it.
### Response 17.58

### Prompt Then OCCN1CCN(Cc2cc3c(cc2Br)OCCO3)CC1 ?
### Response -50.33

### Prompt Then CCc1ccc(CN2C[C@@H](c3nc(C)no3)C[C@H]3OCC[C@H]32)o1.O=C(O)C(F)(F)F ?
### Response 28.15

### Prompt Then Cc1nn(-c2ccc(F)cc2)c2[nH]nc(N)c12 ?
### Response 67.22

### Prompt Then CC1CCN(S(=O)(=O)NC(C)Cc2ccco2)CC1 (configuration not stated) ?
### Response 45

### Prompt Then CCCNC(=O)C(C)N1CCC(C(=O)Nc2cnn(CC)c2)CC1 (configuration not stated) ?
### Response -1.052

### Prompt Then CC(Cc1ccco1)NS(=O)(=O)N1CCCCCC1 (configuration not stated) ?
### Response 68.78

### Prompt Then CN1C(=O)C2(CC(=O)Nc3[nH]ncc32)c2ccc(F)cc21 (configuration not stated) ?
### Response 10.37

### Prompt Then Cc1nn(C)c(=O)c2nn(-c3ccc(F)cc3)c(C)c12 ?
### Response 2.323

### Prompt Then CS(=O)(=O)N1CCN(Cc2ccc(F)cc2Br)CC1 ?
### Response 31.68

### Prompt Then OC1CCN(Cc2cc3c(cc2Br)OCCO3)CC1 ?
### Response 5.885

### Prompt Then Oc1ccc(N2CCN(Cc3ccc(F)cc3Br)CC2)cc1 ?
### Response 105.2
